Kindly supply the reported Kd values for the records listed here.
Target: T1, human tissue factor pathway inhibitor (TFPI) (human, UniProt P10646 29-304, limits assumed)
T1 construct: bought; also called hTFPI; human TFPI
T1 sequence (looked up): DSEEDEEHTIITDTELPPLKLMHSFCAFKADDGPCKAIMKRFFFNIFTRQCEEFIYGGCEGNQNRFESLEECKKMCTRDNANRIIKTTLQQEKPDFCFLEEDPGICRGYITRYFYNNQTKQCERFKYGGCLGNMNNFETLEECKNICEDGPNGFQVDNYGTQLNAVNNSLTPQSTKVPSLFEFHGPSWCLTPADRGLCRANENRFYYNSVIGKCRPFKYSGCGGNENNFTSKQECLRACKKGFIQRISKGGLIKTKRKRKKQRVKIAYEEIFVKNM
Assay: SPR, TFPI immobilized
API: value field is a number in nM; no unit string.

// lookup Kd for 4B7 HC_D62R (Fab, V domains shown, also called 4B7-D62R) VH: QVQLQQSGPGLVKPSQTLSLTCAISGDSVSSNSAAWSWIRQSPGRGLEWLGIIYKRSKWYNRYAVSVKSRITINPDTSKNQFSLQLNSVTPEDTAVYYCARWHSDKHWGFDYWGQGTLVTVSS VL: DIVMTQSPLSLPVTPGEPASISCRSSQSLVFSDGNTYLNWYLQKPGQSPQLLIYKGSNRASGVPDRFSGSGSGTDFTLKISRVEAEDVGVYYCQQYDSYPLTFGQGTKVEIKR 0.0582

Then what about the binder 2A8 LC_N51V (Fab, V domains shown, also called 2A8-13) VH: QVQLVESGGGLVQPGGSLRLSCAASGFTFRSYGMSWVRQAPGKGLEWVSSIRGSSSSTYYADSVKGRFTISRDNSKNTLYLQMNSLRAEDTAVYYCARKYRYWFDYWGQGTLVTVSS VL: DIELTQPPSVSVAPGQTARISCSGDNLRNYYAHWYQQKPGQAPVVVIYYDVNRPSGIPERFSGSNSGNTATLTISGTQAEDEADYYCQSWDDGVPVFGGGTKLTVLG ? 0.518

Okay, and 2A8 HC_S55R (Fab, V domains shown, also called 2A8-8) VH: QVQLVESGGGLVQPGGSLRLSCAASGFTFRSYGMSWVRQAPGKGLEWVSSIRGSRSSTYYADSVKGRFTISRDNSKNTLYLQMNSLRAEDTAVYYCARKYRYWFDYWGQGTLVTVSS VL: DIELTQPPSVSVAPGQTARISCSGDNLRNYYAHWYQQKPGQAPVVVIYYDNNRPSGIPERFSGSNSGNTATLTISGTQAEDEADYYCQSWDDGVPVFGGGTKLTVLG ? 0.917
